Target: Serine/threonine-protein kinase B-raf (Homo sapiens)
metric: IC50 (µM)
Hi! Could you send only the number? It should be in µM, unit omitted.

[ask] Form field - read-out: IC50; system: Serine/threonine-protein kinase B-raf (Homo sapiens); submitted item: `C[C@H](O)CNc1nccc(-n2ccnc2Cc2cccc(NC(=O)Nc3ccc(Cl)c(C(F)(F)F)c3)c2)n1`
[reply] 0.186

* * *

Biological target: Serine/threonine-protein kinase B-raf (Homo sapiens, UniProt P15056, V600E)
Sequence (P15056 2-766 V600E limits assumed): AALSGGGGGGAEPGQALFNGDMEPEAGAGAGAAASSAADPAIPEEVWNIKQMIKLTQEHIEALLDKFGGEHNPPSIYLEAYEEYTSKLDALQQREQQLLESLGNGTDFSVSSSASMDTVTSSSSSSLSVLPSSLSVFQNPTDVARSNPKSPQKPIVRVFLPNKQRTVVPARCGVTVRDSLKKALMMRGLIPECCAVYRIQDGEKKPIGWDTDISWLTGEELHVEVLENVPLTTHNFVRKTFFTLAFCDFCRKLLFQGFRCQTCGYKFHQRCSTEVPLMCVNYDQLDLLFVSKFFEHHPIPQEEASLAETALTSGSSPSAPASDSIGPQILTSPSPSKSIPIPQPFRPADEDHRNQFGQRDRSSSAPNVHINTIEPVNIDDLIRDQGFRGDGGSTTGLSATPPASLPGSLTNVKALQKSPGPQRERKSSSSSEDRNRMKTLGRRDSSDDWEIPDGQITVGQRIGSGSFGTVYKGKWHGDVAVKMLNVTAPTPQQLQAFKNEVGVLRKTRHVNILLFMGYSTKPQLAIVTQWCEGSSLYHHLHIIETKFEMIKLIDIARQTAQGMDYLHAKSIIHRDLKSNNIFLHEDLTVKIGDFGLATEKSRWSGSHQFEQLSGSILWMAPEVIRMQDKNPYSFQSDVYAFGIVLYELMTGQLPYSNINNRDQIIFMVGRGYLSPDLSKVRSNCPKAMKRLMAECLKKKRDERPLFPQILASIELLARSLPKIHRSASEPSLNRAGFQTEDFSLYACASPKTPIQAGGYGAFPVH
Experiment: Inhibition of BRAF V599E mutant (unknown origin)
metric: pIC50
// field semantics: pIC50 = negative decimal log of concentration (mol/L)

[ask] Consider the compound shown here: `C[C@H](O)CNc1nccc(-n2ccnc2Cc2cccc(NC(=O)Nc3ccc(Cl)c(C(F)(F)F)c3)c2)n1` What is its recorded pIC50?
[reply] 7.42

This collection of values is drawn from ChEMBL document CHEMBL3351907.
